# Assay Info: The drug is tested on Bacteroides fragilis strain: T(B)9 for biotransformation. The drug concentrations were measured before and after a 12-h incubation by liquid-chromatography-coupled mass spectrometry (LC–MS)
# Assay Setup: 2 µM
Readout Name: Bacterial Biotransformation

# Compound, Assay Value
rows = [
    ("O=P1(N(CCCl)CCCl)NCCCO1 (stereo not drawn) [CYCLOPHOSPHAMIDE ANHYDROUS]", "Compound NOT metabolized"),
    ("Clc1cccc(Cl)c1N=C1NCCN1", "Compound metabolized"),
    ("CN1C(C(=O)Nc2ccccn2)=C(O)c2sccc2S1(=O)=O", "Compound NOT metabolized"),
    ("N#Cc1ccc2[nH]cc(CCCCN3CCN(c4ccc5oc(C(N)=O)cc5c4)CC3)c2c1", "Compound metabolized"),
    ("c1ccc([C@H]2CN3CCSC3=N2)cc1", "Compound metabolized"),
    ("Cc1nc(-c2ccc(OCC(C)C)c(C#N)c2)sc1C(=O)O", "Compound metabolized"),
    ("COc1ccc(CCN(C)CCCC(C#N)(c2ccc(OC)c(OC)c2)C(C)C)cc1OC (stereo not drawn)", "Compound NOT metabolized"),
    ("COc1ccc2cc([C@H](C)C(=O)O)ccc2c1", "Compound NOT metabolized"),
]

###

# Assay Setup: parabacteroides distasonis, 12 h, 2 µM
# Description: The drug is tested on Parabacteroides distasonis strain: ATCC8503 for biotransformation. The drug concentrations were measured before and after a 12-h incubation by liquid-chromatography-coupled mass spectrometry (LC–MS)

# Compound, Bacterial Biotransformation
rows = [
    ("CN(C)CCc1c[nH]c2ccc(CS(=O)(=O)N3CCCC3)cc12 [ALMOTRIPTAN]", "Compound NOT metabolized"),
    ("COC(=O)C1=C(C)NC(C)=C(C(=O)OC(C)C)C1c1cccc2nonc12 (centres undefined) [ISRADIPINE]", "Compound NOT metabolized"),
    ("Cc1ccc(/C(=C\\CN2CCCC2)c2ccccn2)cc1 [TRIPROLIDINE]", "Compound NOT metabolized"),
    ("CCN(C)C(=O)Oc1cccc([C@H](C)N(C)C)c1.O=C(O)C(O)C(O)C(=O)O [RIVASTIGMINE TARTRATE]", "Compound NOT metabolized"),
    ("OC(CCN1CCCCC1)(c1ccccc1)C1CCCCC1 (centres undefined) [TRIHEXYPHENIDYL]", "Compound NOT metabolized"),
    ("CC(=O)Oc1ccc(C(c2ccc(OC(C)=O)cc2)c2ccccn2)cc1 [BISACODYL]", "Compound metabolized"),
    ("COc1ccc2cc([C@H](C)C(=O)O)ccc2c1 [NAPROXEN]", "Compound NOT metabolized"),
    ("CCN(C(C)=O)c1cccc(-c2ccnc3c(C#N)cnn23)c1 [ZALEPLON]", "Compound NOT metabolized"),
    ("O=C([O-])C[C@H](O)C[C@H](O)/C=C/c1c(C2CC2)nc2ccccc2c1-c1ccc(F)cc1.O=C([O-])C[C@H](O)C[C@H](O)/C=C/c1c(C2CC2)nc2ccccc2c1-c1ccc(F)cc1.[Ca+2] [PITAVASTATIN CALCIUM]", "Compound NOT metabolized"),
    ("COc1cc(NC(C)CCCN)c2ncccc2c1.O=P(O)(O)O.O=P(O)(O)O (centres undefined) [PRIMAQUINE PHOSPHATE]", "Compound metabolized"),
    ("CN(C)CC(c1ccc(O)cc1)C1(O)CCCCC1.O=C(O)CCC(=O)O (centres undefined) [DESVENLAFAXINE SUCCINATE]", "Compound NOT metabolized"),
    ("CN(C)C(=O)Oc1cccc([N+](C)(C)C)c1.[Br-] [NEOSTIGMINE BROMIDE]", "Compound NOT metabolized"),
    ("CCN(CC)CCNC(=O)c1cc(Cl)c(N)cc1OC [METOCLOPRAMIDE]", "Compound NOT metabolized"),
    ("CC(C)(C)NC[C@H](O)COc1ccccc1C1CCCC1.CC(C)(C)NC[C@H](O)COc1ccccc1C1CCCC1.O=S(=O)(O)O [PENBUTOLOL SULFATE]", "Compound NOT metabolized"),
    ("CCOC(=O)[C@H](CCc1ccccc1)N[C@@H](C)C(=O)N1Cc2ccccc2C[C@H]1C(=O)O", "Compound metabolized"),
    ("CC(C)NCC(O)c1ccc(NS(C)(=O)=O)cc1 (centres undefined) [SOTALOL]", "Compound NOT metabolized"),
    ("C=C[C@H]1CN2CC[C@H]1C[C@H]2[C@H](O)c1ccnc2ccc(OC)cc12.C=C[C@H]1CN2CC[C@H]1C[C@H]2[C@H](O)c1ccnc2ccc(OC)cc12.O.O.O=S(=O)(O)O [QUININE SULFATE]", "Compound NOT metabolized"),
    ("CCS(=O)(=O)CCn1c([N+](=O)[O-])cnc1C [TINIDAZOLE]", "Compound metabolized"),
    ("COc1ccc(CN2CCNCC2)c(OC)c1OC.Cl.Cl [TRIMETAZIDINE DIHYDROCHLORIDE]", "Compound metabolized"),
]

###

# Assay Setup: bifidobacterium adolescentis, 12 h, 2 µM
# Description: The drug is tested on Bifidobacterium adolescentis strain: ATCC 15703 for biotransformation. The drug concentrations were measured before and after a 12-h incubation by liquid-chromatography-coupled mass spectrometry (LC–MS)

# Compound, Bacterial Biotransformation
records = [
    ("CSc1ccc2c(c1)C(N1CCN(C)CC1)Cc1ccccc1S2.O=C(O)/C=C\\C(=O)O (stereo not given)", "Compound NOT metabolized"),
    ("COc1ccc2c(c1)c(CC(=O)O)c(C)n2C(=O)c1ccc(Cl)cc1", "Compound NOT metabolized"),
    ("N#Cc1ccc2c(c1)N(CCCN1CCC(O)CC1)c1ccccc1S2", "Compound NOT metabolized"),
    ("O=C(CCCN1CCC2(CC1)C(=O)NCN2c1ccccc1)c1ccc(F)cc1", "Compound NOT metabolized"),
    ("CCOC(=O)C1=C[C@]2(CC)CCCN3CCc4c(n1c1ccccc41)[C@@H]32", "Compound NOT metabolized"),
    ("O=C1CN2Cc3c(ccc(Cl)c3Cl)N=C2N1 [ANAGRELIDE]", "Compound NOT metabolized"),
    ("COc1ccc([C@@H]2Sc3ccccc3N(CCN(C)C)C(=O)[C@@H]2OC(C)=O)cc1", "Compound NOT metabolized"),
    ("CN1CCN2c3ccccc3Cc3ccccc3C2C1 (stereo not given)", "Compound NOT metabolized"),
    ("COc1cc2nc(N3CCN(C(=O)c4ccco4)CC3)nc(N)c2cc1OC", "Compound NOT metabolized"),
]

###

# Assay Info: The drug is tested on Collinsella aerofaciens strain: ATCC25986 for biotransformation. The drug concentrations were measured before and after a 12-h incubation by liquid-chromatography-coupled mass spectrometry (LC–MS)
# Assay Setup: 2 µM
Readout Name: Bacterial Biotransformation

# Compound, Readout Name, Assay Value
measured = [
    ("NC(=O)N1c2ccccc2CC(=O)c2ccccc21 [OXCARBAZEPINE]", "Bacterial Biotransformation", "Compound NOT metabolized"),
    ("COc1ccc(C(CN(C)C)C2(O)CCCCC2)cc1 (stereo not drawn)", "Bacterial Biotransformation", "Compound NOT metabolized"),
    ("CN1CCN2c3ccccc3Cc3ccccc3C2C1 (stereo not drawn)", "Bacterial Biotransformation", "Compound NOT metabolized"),
    ("CN(C)C(=O)C(CCN1CCC(O)(c2ccc(Cl)cc2)CC1)(c1ccccc1)c1ccccc1 [LOPERAMIDE]", "Bacterial Biotransformation", "Compound NOT metabolized"),
    ("CNCC[C@H](Oc1cccc2ccccc12)c1cccs1", "Bacterial Biotransformation", "Compound metabolized"),
    ("OC(CCN1CCCCC1)(c1ccccc1)C1CC2C=CC1C2 (stereo not drawn)", "Bacterial Biotransformation", "Compound NOT metabolized"),
    ("COc1ccc(CN2CCNCC2)c(OC)c1OC.Cl.Cl [TRIMETAZIDINE DIHYDROCHLORIDE]", "Bacterial Biotransformation", "Compound NOT metabolized"),
    ("CC(=O)CC(c1ccccc1)c1c(O)c2ccccc2oc1=O (stereo not drawn)", "Bacterial Biotransformation", "Compound NOT metabolized"),
    ("CCN(CC)CCOC(=O)C1(C2CCCCC2)CCCCC1", "Bacterial Biotransformation", "Compound NOT metabolized"),
    ("COc1ccccc1OCCNCC(O)COc1cccc2[nH]c3ccccc3c12 (stereo not drawn)", "Bacterial Biotransformation", "Compound metabolized"),
    ("N#Cc1ccc2[nH]cc(CCCCN3CCN(c4ccc5oc(C(N)=O)cc5c4)CC3)c2c1", "Bacterial Biotransformation", "Compound NOT metabolized"),
    ("CNC(=C[N+](=O)[O-])NCCSCc1ccc(CN(C)C)o1", "Bacterial Biotransformation", "Compound metabolized"),
    ("CC[C@@H](CO)NC(=O)[C@@H]1C=C2c3cccc4c3c(cn4C)C[C@H]2N(C)C1.O=C(O)/C=C\\C(=O)O [METHYSERGIDE MALEATE]", "Bacterial Biotransformation", "Compound metabolized"),
    ("CC(C)NCC(O)c1ccc(NS(C)(=O)=O)cc1 (stereo not drawn)", "Bacterial Biotransformation", "Compound NOT metabolized"),
    ("CCOC(=O)[C@H](CCc1ccccc1)N[C@@H](C)C(=O)N1[C@H](C(=O)O)C[C@@H]2CCC[C@@H]21", "Bacterial Biotransformation", "Compound NOT metabolized"),
    ("COC(=O)[C@H]1[C@H]2C[C@@H]3c4[nH]c5cc(OC)ccc5c4CCN3C[C@H]2C[C@@H](OC(=O)c2cc(OC)c(OC)c(OC)c2)[C@@H]1OC", "Bacterial Biotransformation", "Compound NOT metabolized"),
    ("CCN1CCCC1CNC(=O)c1cc(S(=O)(=O)CC)c(N)cc1OC (stereo not drawn) [AMISULPRIDE]", "Bacterial Biotransformation", "Compound NOT metabolized"),
    ("CN1C(=O)CC(C)(c2ccccc2)C1=O (stereo not drawn) [METHSUXIMIDE]", "Bacterial Biotransformation", "Compound NOT metabolized"),
    ("CCOc1ccc2nc(S(N)(=O)=O)sc2c1 [ETHOXZOLAMIDE]", "Bacterial Biotransformation", "Compound metabolized"),
    ("COc1ccc2cc([C@H](C)C(=O)O)ccc2c1", "Bacterial Biotransformation", "Compound NOT metabolized"),
    ("CC(C)[C@H]1CC[C@H](C(=O)N[C@H](Cc2ccccc2)C(=O)O)CC1 [NATEGLINIDE]", "Bacterial Biotransformation", "Compound NOT metabolized"),
    ("CCOC(=O)[C@H](CCc1ccccc1)N[C@H]1CCc2ccccc2N(CC(=O)O)C1=O", "Bacterial Biotransformation", "Compound metabolized"),
    ("O=P1(N(CCCl)CCCl)NCCCO1 (stereo not drawn) [CYCLOPHOSPHAMIDE ANHYDROUS]", "Bacterial Biotransformation", "Compound NOT metabolized"),
]

The reported numbers originate from ChEMBL document CHEMBL5303573.
